Where do these numbers come from? They come from ChEMBL document CHEMBL3608295.

# assay.overview: Hemolytic activity in human RBC at 25 uM after 30 mins relative to control
# Format: ADME, cell-based, Erythrocyte
# experimental.context: human red blood cells (RBC), read-out: Activity
Starred links: 1 amine or outer side, 2 acyl side, 3 side chain; linkers in the order of their positions; H or OH if unused. Positions of bridges follow the written chain, without caps; N, C: chain ends. Non-standard residues stand in square brackets, D forms with d. Residues, ends and D or L forms follow the SMILES beside them. R5 = C=CCCC[C@@](C)(N)C(=O)O; Suc = O=C(CCC(=O)[*:2])[*:1]
measurement.kind: hemolysis at 0.5 h, 25 µM (%)
Provide the reading as a plain figure in %.

Take a look at these entries with their results.
- CC(=O)N[C@@H](CCCCN)C(=O)N[C@]1(C)CCC/C=C\CCC[C@](C)(C(=O)N[C@@H](CCCCN)C(=O)N[C@@H](CCCCN)C(=O)N[C@]2(C)CCC/C=C\CCC[C@](C)(C(=O)N[C@@H](Cc3c[nH]c4ccccc34)C(=O)N[C@@H](CCCCN)C(N)=O)NC(=O)[C@H](C)NC(=O)[C@H](CCCCN)NC(=O)[C@H](C)NC2=O)NC(=O)[C@H](C)NC(=O)[C@H](CCCCN)NC(=O)[C@H](C)NC1=O (Ac-K[R5]AKA[R5]KK[R5]AKA[R5]WK-NH2; staple (Z) 2-6, 9-13): 38.8
- C[C@@H]1NC(=O)[C@H](CCCCN)NC(=O)[C@H](C)NC(=O)[C@](C)(NC(=O)[C@H](CCCCN)NC(=O)[C@H](CCCCN)NC(=O)[C@@]2(C)CCC/C=C\CCC[C@@](C)(NC(=O)[C@@H](N)CCCCN)C(=O)N[C@@H](C)C(=O)N[C@@H](CCCCN)C(=O)N[C@@H](Cc3c[nH]c4ccccc34)C(=O)N2)CCC/C=C\CCC[C@](C)(C(=O)N[C@@H](C)C(=O)N[C@@H](CCCCN)C(N)=O)NC1=O (H-K[R5]AKW[R5]KK[R5]AKA[R5]AK-NH2; staple (Z) 2-6, 9-13): 25.5
- C[C@@H]1NC(=O)[C@H](CCCCN)NC(=O)[C@H](C)NC(=O)[C@](C)(NC(=O)[C@H](CCCCN)NC(=O)[C@H](CCCCN)NC(=O)[C@@]2(C)CCC/C=C\CCC[C@@](C)(NC(=O)[C@H](CCCCN)NC(=O)CCC(=O)O)C(=O)N[C@@H](C)C(=O)N[C@@H](CCCCN)C(=O)N[C@@H](Cc3c[nH]c4ccccc34)C(=O)N2)CCC/C=C\CCC[C@](C)(C(=O)N[C@@H](C)C(=O)N[C@@H](CCCCN)C(N)=O)NC1=O (Suc-K[R5]AKW[R5]KK[R5]AKA[R5]AK-NH2; staple (Z) 2-6, 9-13): 32.6
- CC(=O)N[C@@H](CCCCN)C(=O)N[C@]1(C)CCC/C=C\CCC[C@](C)(C(=O)N[C@@H](CCCCN)C(=O)N[C@@H](CCCCN)C(=O)N[C@]2(C)CCC/C=C\CCC[C@](C)(C(=O)N[C@@H](C)C(=O)N[C@@H](CCCCN)C(N)=O)NC(=O)[C@H](C)NC(=O)[C@H](CCCCN)NC(=O)[C@H](C)NC2=O)NC(=O)[C@H](Cc2c[nH]c3ccccc23)NC(=O)[C@H](CCCCN)NC(=O)[C@H](C)NC1=O (Ac-K[R5]AKW[R5]KK[R5]AKA[R5]AK-NH2; staple (Z) 2-6, 9-13): 38.5

Query string: Can you look up the measured hemolysis at 0.5 h, 25 µM of CC(=O)N[C@@H](CCCCN)C(=O)N[C@]1(C)CCC/C=C\CCC[C@](C)(C(=O)N[C@@H](CCCCN)C(=O)N[C@@H](CCCCN)C(=O)N[C@]2(C)CCC/C=C\CCC[C@](C)(C(=O)N[C@@H](C)C(=O)N[C@@H](CCCCN)C(N)=O)NC(=O)[C@H](Cc3c[nH]c4ccccc34)NC(=O)[C@H](CCCCN)NC(=O)[C@H](C)NC2=O)NC(=O)[C@H](C)NC(=O)[C@H](CCCCN)NC(=O)[C@H](C)NC1=O (Ac-K[R5]AKA[R5]KK[R5]AKW[R5]AK-NH2; staple (Z) 2-6, 9-13) for me?
Result string: 42.5

---

# Tested on: Klebsiella pneumoniae
# assay.overview: Antimicrobial activity against Klebsiella pneumoniae ATCC 10031 after 24 hrs by broth microdilution method
# Type: functional
# experimental.context: ATCC 10031, 24 h
Starred links: 1 amine or outer side, 2 acyl side, 3 side chain; linkers in the order of their positions; H or OH if unused. Positions of bridges follow the written chain, without caps; N, C: chain ends. Non-standard residues stand in square brackets, D forms with d. Residues, ends and D or L forms follow the SMILES beside them. R5 = C=CCCC[C@@](C)(N)C(=O)O; Suc = O=C(CCC(=O)[*:2])[*:1]
Measured MIC by item
Reply with just the number (in µg/mL).

- CC(=O)N[C@@H](CCCCN)C(=O)N[C@]1(C)CCC/C=C\CCC[C@](C)(C(=O)N[C@@H](CCCCN)C(=O)N[C@@H](CCCCN)C(=O)N[C@]2(C)CCC/C=C\CCC[C@](C)(C(=O)N[C@@H](C)C(=O)N[C@@H](CCCCN)C(N)=O)NC(=O)[C@H](Cc3c[nH]c4ccccc34)NC(=O)[C@H](CCCCN)NC(=O)[C@H](C)NC2=O)NC(=O)[C@H](C)NC(=O)[C@H](CCCCN)NC(=O)[C@H](C)NC1=O (Ac-K[R5]AKA[R5]KK[R5]AKW[R5]AK-NH2; staple (Z) 2-6, 9-13): 100

Now let's try a different one.
Query string: Fill in: MIC of C[C@@H]1NC(=O)[C@H](CCCCN)NC(=O)[C@H](C)NC(=O)[C@](C)(NC(=O)[C@H](CCCCN)NC(=O)[C@H](CCCCN)NC(=O)[C@@]2(C)CCC/C=C\CCC[C@@](C)(NC(=O)[C@H](CCCCN)NC(=O)CCC(=O)O)C(=O)N[C@@H](C)C(=O)N[C@@H](CCCCN)C(=O)N[C@@H](Cc3c[nH]c4ccccc34)C(=O)N2)CCC/C=C\CCC[C@](C)(C(=O)N[C@@H](C)C(=O)N[C@@H](CCCCN)C(N)=O)NC1=O (Suc-K[R5]AKW[R5]KK[R5]AKA[R5]AK-NH2; staple (Z) 2-6, 9-13) is ___
Result string: 25

---

# System: Bacillus spizizenii
# assay.overview: Antimicrobial activity against Bacillus subtilis ATCC 6633 after 24 hrs by broth microdilution method
# Format: functional
# experimental.context: ATCC 6633, 24 h
Positions of bridges follow the written chain, without caps; N, C: chain ends. Non-standard residues stand in square brackets, D forms with d. Residues, ends and D or L forms follow the SMILES beside them. R5 = C=CCCC[C@@](C)(N)C(=O)O
measurement.kind: MIC (µg/mL)
Give the number; µg/mL is assumed, so skip it.

Query string: Can you share its MIC? I mean this compound: CC(=O)N[C@@H](CCCCN)C(=O)N[C@]1(C)CCC/C=C\CCC[C@](C)(C(=O)N[C@@H](CCCCN)C(=O)N[C@@H](CCCCN)C(=O)N[C@]2(C)CCC/C=C\CCC[C@](C)(C(=O)N[C@@H](C)C(=O)N[C@@H](CCCCN)C(N)=O)NC(=O)[C@H](C)NC(=O)[C@H](CCCCN)NC(=O)[C@H](C)NC2=O)NC(=O)[C@H](Cc2c[nH]c3ccccc23)NC(=O)[C@H](CCCCN)NC(=O)[C@H](C)NC1=O (Ac-K[R5]AKW[R5]KK[R5]AKA[R5]AK-NH2; staple (Z) 2-6, 9-13)
Result string: 1.6
